Recorded substrate turnover, one value per entry.
Biological target: Diacylglycerol lipase-beta (Mus musculus) (UniProt Q91WC9)
Sequence (Q91WC9 whole entry, looked up): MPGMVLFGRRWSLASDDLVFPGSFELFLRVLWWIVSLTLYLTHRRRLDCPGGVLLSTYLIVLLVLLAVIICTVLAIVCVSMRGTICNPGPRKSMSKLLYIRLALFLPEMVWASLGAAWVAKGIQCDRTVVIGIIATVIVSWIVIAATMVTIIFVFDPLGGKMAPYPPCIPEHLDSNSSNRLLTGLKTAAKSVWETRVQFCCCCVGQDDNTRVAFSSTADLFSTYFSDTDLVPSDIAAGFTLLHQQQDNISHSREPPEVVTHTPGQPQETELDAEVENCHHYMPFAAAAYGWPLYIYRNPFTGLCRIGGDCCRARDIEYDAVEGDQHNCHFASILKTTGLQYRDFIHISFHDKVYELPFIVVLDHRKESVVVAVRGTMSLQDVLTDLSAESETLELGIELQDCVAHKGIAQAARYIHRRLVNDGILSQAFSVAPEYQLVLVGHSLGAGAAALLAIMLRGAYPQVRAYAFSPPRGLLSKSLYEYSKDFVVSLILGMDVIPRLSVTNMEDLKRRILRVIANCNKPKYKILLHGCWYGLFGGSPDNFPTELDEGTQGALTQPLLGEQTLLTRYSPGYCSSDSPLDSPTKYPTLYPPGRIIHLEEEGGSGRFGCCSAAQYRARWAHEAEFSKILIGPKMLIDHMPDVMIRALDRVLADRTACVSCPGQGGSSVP
Assay: mouse DAGLb substrate turnover inhibition – biochemical, LC-MS, overexpressed mouse DAGLb (AID 602415)
Conditions: HEK293T membranes overexpressing mDAGLb, SAG turnover LC-MS; at 10 µM; hits give low values
Answer with a number only, understood to be in %.

Q) Consider the compound shown here: COc1cc(C=NNc2ccccc2[N+](=O)[O-])cc(OC)c1O What is its recorded substrate turnover?
A) 60

Further cases:
Q) Consider the compound shown here: CC(=NNc1ccc(S(N)(=O)=O)cc1[N+](=O)[O-])c1ccc2c(c1)OCO2 What is its recorded substrate turnover?
A) 64

Q) Same thing, different compound: CCOc1ccc(Nc2nnc(SCc3nc4ccccc4c(=O)[nH]3)s2)cc1
A) 69

* * *

Recorded substrate turnover, one value per entry.
Target: Diacylglycerol lipase-beta (Mus musculus) (UniProt Q91WC9)
Test: mouse DAGLb substrate turnover inhibition – biochemical, LC-MS, overexpressed mouse DAGLb (AID 602415)
Conditions: HEK293T membranes overexpressing mDAGLb, SAG turnover LC-MS; at 10 µM; hits give low values
Answer with a number only, understood to be in %.

Consider the following illustrative entries.
Q) Consider the compound shown here: CCCN1C(=O)/C(=C2/C=Cc3ccccc3N2CC)SC1=S What is its recorded substrate turnover?
A) 68

Q) Same thing, different compound: CCC(=NNc1ccc([N+](=O)[O-])cc1[N+](=O)[O-])c1ccc(O)cc1
A) 67

Q) Same thing, different compound: COc1ccc(N/C=C2\C(=O)CCc3c2oc2cc(Cl)c(O)c(Cl)c32)cc1
A) 16

Q) Same thing, different compound: CC1=NN(c2ccccc2)C(=O)C1N=Nc1ccc(N)cc1 (stereo not given)
A) 65

Q) Same thing, different compound: O=S(=O)(O)c1cccc(N=Nc2c(O)ccc3ccccc23)c1
A) 59

Further cases:
Q) Consider the compound shown here: CC(=O)Nc1ccc(/C=N/Nc2ccc(S(=O)(=O)Nc3ccccc3C(=O)O)cc2[N+](=O)[O-])cc1 What is its recorded substrate turnover?
A) 84

Q) Same thing, different compound: O=C(NNc1c2ccccc2nc2ccccc12)c1ccc(O)cc1O
A) 79

Q) Same thing, different compound: Cn1cc(/C=C2\SC(=O)NC2=S)c2ccccc21
A) 61

Q) Same thing, different compound: CC1CC(C)CN(C(=O)c2ccc3c(c2NCCO)C(=O)c2ccccc2C3=O)C1 (stereo not given)
A) 78

Q) Same thing, different compound: Cc1ccc(-n2c(O)c(/C=N/Nc3ccc(S(=O)(=O)N4CCOCC4)cc3[N+](=O)[O-])c3ccccc3c2=O)c(C)c1
A) 56

Q) Same thing, different compound: COc1ccccc1C=NNc1ccccc1[N+](=O)[O-]
A) 94

Q) Same thing, different compound: O=[N+]([O-])c1ccc(N2CCN(c3ccc(F)cc3)CC2)cc1
A) 74

Q) Same thing, different compound: COC(=O)c1ccccc1NCc1cc(=O)oc2cc(O)c(O)cc12
A) 48

Q) Same thing, different compound: O=C(NNc1c2ccccc2nc2ccccc12)c1ccccc1O
A) 56

Q) Same thing, different compound: Cc1ccc(Nc2nnc(SCc3nc4ccccc4c(=O)[nH]3)s2)cc1
A) 87

Q) Same thing, different compound: CCOC(=O)/C(C#N)=C/C=C1\C=Cc2ccccc2N1CC
A) 51

Q) Same thing, different compound: Cc1oc2cc([N+](=O)[O-])c(O)c([N+](=O)[O-])c2c1C(=O)c1ccc(Br)cc1
A) 62

Q) Same thing, different compound: O=C1c2cccc(Cl)c2C(=O)c2c1cccc2N1CCCC1
A) 52

Q) Same thing, different compound: CCN(Cc1ccccc1)c1ccc(N=Nc2nn(C)c(C)c2[N+](=O)[O-])cc1
A) 97

Q) Same thing, different compound: Nc1ccc(N=Nc2ccccc2)c2cccnc12
A) 88

Q) Same thing, different compound: N#CC(C#N)=NNc1ccc([N+](=O)[O-])cc1
A) 65

Q) Same thing, different compound: O=C(O)c1cc(S(=O)(=O)Nc2cc(Cl)ccc2Oc2ccccc2)ccc1O
A) 53

Q) Same thing, different compound: COc1cc(/C=C2/C(=O)NN(c3ccc(C)c(Cl)c3)C2=O)cc([N+](=O)[O-])c1O
A) 43

Q) Same thing, different compound: CC1(C)CC(=O)C2=C(C1)N=C1c3ccccc3C(=O)C1C2c1ccc(Cl)cc1 (stereo not given)
A) 82

Q) Same thing, different compound: COc1ccccc1N=Nc1nc(-c2ccccc2)c(-c2ccccc2)[nH]1
A) 79

Q) Same thing, different compound: CC1=NN(c2ccccc2)C(=O)/C1=C\C=C1/N(C)c2ccccc2C1(C)C
A) 74

* * *

Target: Diacylglycerol lipase-beta (Mus musculus) (UniProt Q91WC9)
Test: mouse DAGLb substrate turnover inhibition – biochemical, LC-MS, overexpressed mouse DAGLb (AID 602415)
Conditions: HEK293T membranes overexpressing mDAGLb, SAG turnover LC-MS; at 10 µM
The source made the active and inactive calls.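 Rule for the calls: active = substrate turnover at or below 60%; inactive = substrate turnover above 60%.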
Result category, one only: active, inactive

Q) GET /call?item= CCOc1ccc2c(c1)-c1c(ssc1=S)C(C)(C)N2 returns the recorded outcome of this test.
A) inactive

Q) Same thing, different compound: CC(=O)c1c(C)oc2ccc(NS(=O)(=O)c3ccc(O)c(C(=O)O)c3)cc12
A) active

Q) Same thing, different compound: O=C1c2ccccc2C(=O)c2c1cccc2N1CCCC1
A) inactive

Q) Same thing, different compound: CC(=O)c1ccc(N2CCN(c3ccc(C(F)(F)F)cn3)CC2)cc1
A) inactive

Next:
Q) GET /call?item= CCOc1ccccc1N1CCN(C2=C(NS(=O)(=O)c3cccs3)C(=O)c3ccccc3C2=O)CC1 returns the recorded outcome of this test.
A) inactive

* * *

Recorded substrate turnover, one value per entry.
Biological target: Diacylglycerol lipase-beta (Mus musculus) (UniProt Q91WC9)
Assay: mouse DAGLb substrate turnover inhibition – biochemical, LC-MS, overexpressed mouse DAGLb (AID 602415)
Conditions: HEK293T membranes overexpressing mDAGLb, SAG turnover LC-MS; at 10 µM; hits give low values
Answer with a number only, understood to be in %.

Q) Consider the compound shown here: CCN(CCCNc1cc2c(c(N)c1S(=O)(=O)O)C(=O)c1ccccc1C2=O)c1ccccc1 What is its recorded substrate turnover?
A) 80

Q) Same thing, different compound: CCOc1cc(/C=C2\N=C(SCC)SC2=O)cc([N+](=O)[O-])c1OC(C)=O
A) 78

Q) Same thing, different compound: CCN(CC)c1ccc(N=Nc2nn(C)c(C)c2[N+](=O)[O-])cc1
A) 68

Q) Same thing, different compound: O=[N+]([O-])c1ccc(N2CCN(c3ccccc3)CC2)cc1
A) 91

Q) Same thing, different compound: O=C1S/C(=C\c2ccc(O)c([N+](=O)[O-])c2)C(=O)N1c1ccccc1Cl
A) 76

* * *

Biological target: Diacylglycerol lipase-beta (Mus musculus)
Test: mouse DAGLb substrate turnover inhibition – biochemical, LC-MS, overexpressed mouse DAGLb (AID 602415)
Conditions: HEK293T membranes overexpressing mDAGLb, SAG turnover LC-MS; at 10 µM; hits give low values
// NB: equality with 80% counts as not fulfilled; only substrate turnover strictly below is fulfilled

// below: answered compounds
Q) Field: below-cutoff. Rule: recorded substrate turnover strictly less than 80%. Subject: Nc1nc(-c2ccccc2)c(N=Nc2ccccc2Cl)s1
A) fulfilled

Q) Same thing, different compound: Nc1nc(-c2ccccc2)c(N=Nc2cccnc2)s1
A) fulfilled

Q) Same thing, different compound: O=C(NC(C(=O)NN=Cc1cccc2ccccc12)c1n[nH]c(=O)c2ccccc12)c1ccccc1 (stereo unspecified)
A) fulfilled

Q) Same thing, different compound: Nc1cc([N+](=O)[O-])cc2oc(-c3ccccc3)cc12
A) not fulfilled

Next:
Q) Field: below-cutoff. Rule: recorded substrate turnover strictly less than 80%. Subject: CCCOc1ccc(C(=O)NNC(=S)NC(=O)c2cc(-c3ccc(Cl)cc3)nc3ccccc23)cc1
A) not fulfilled

* * *

Molecular target: Diacylglycerol lipase-beta (Mus musculus) (UniProt Q91WC9)
Assay: mouse DAGLb substrate turnover inhibition – biochemical, LC-MS, overexpressed mouse DAGLb (AID 602415)
Settings: HEK293T membranes overexpressing mDAGLb, SAG turnover LC-MS; at 10 µM
Active and inactive are the calls of the source.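 Rule for the calls: active = substrate turnover at or below 60%; inactive = substrate turnover above 60%.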
Result category, one only: True for active, False for inactive

Q) GET /call?item= Cc1ccc(-n2[nH]c(C)c(C=NNc3ccc([N+](=O)[O-])cc3[N+](=O)[O-])c2=O)cc1C returns the recorded outcome of this test.
A) True

Q) Same thing, different compound: O=C(NNc1c2ccccc2nc2ccccc12)c1cc2ccccc2cc1O
A) False

Q) Same thing, different compound: N=C1C(c2nc3ccccc3s2)=C(O)CN1NC(=O)c1ccccc1[N+](=O)[O-]
A) True

Q) Same thing, different compound: COc1ccc(C2/C=C\CN(C(=O)c3ccc(C)cc3)[C@H](Cc3ccccc3)C(=O)N2Cc2ccc(F)cc2)cc1 (stereo not given in full)
A) True

Further cases:
Q) GET /call?item= NP(=O)(OCCCCc1ccccc1)Oc1ccccc1Cl (stereo not given) returns the recorded outcome of this test.
A) True
